Hello, the source for this data is PubChem BioAssay (NCATS), in case you need it.

- TEST SUMMARY: qHTS of pediatric cancer cell lines to identify multiple opportunities for drug repurposing: Confirmatory screen for OHS-50 cells (AID 1347128);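 further: compound exposure lasted 48 h at 37 degrees C; nearly all actives have a fitted effect of over 55% in size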
- EXPERIMENTAL CONDITIONS: OHS-50 osteosarcoma cells viability; series mostly up to 45.9 µM
Inconclusive results are not listed. Calls of active or inactive are those of the source. The call rests on the fitted dose curve; in most records, active means well fitted cell-killing curve with a large enough effect; inconclusive means small, poorly fitted or top-dose-only effect, or effect the other way; inactive means no such curve, though single readings can be large or run the other way.
In this exercise, the only acceptable responses are active, inactive

{"SMILES TEXT": "Cc1ccc(C(=O)N(CCCN)[C@@H](c2oc3cc(Cl)ccc3c(=O)c2Cc2ccccc2)C(C)C)cc1", "LABEL VALUE": "active"}
{"SMILES TEXT": "COc1cc(CNC(=O)CCCCC=CC(C)C)ccc1O", "LABEL VALUE": "inactive"}
{"SMILES TEXT": "CN1N=C(N)c2cn([C@@H]3O[C@H](COP(=O)(O)O)[C@@H](O)[C@@H]3O)c3ncnc1c23", "LABEL VALUE": "active"}

Lookup: I would be grateful if you could indicate the recorded call for CN1CCN(c2ncc(-c3cc(Cl)cc(Cl)c3Cl)c(N)n2)CC1 .
Found: inactive

Lookup: What about O=C1NC(=O)C(c2cnc3ccccn23)=C1c1cn2c3c(cccc13)CN(C(=O)N1CCOCC1)CC2 ?
Found: active

* * *

- TEST SUMMARY: Quantitative High-Throughput drug screen in 47 multiple myeloma cell lines against the NCATS MIPE library collection: MOLP8_DSMZ cell viability assay (AID 1918977); further: nearly all actives have a fitted effect of over 45% in size
- EXPERIMENTAL CONDITIONS: MOLP8 myeloma viability, CellTiter-Glo ATP luminescence, 48 h; series mostly up to 45.8 µM
Records with an inconclusive call do not appear. Calls of active or inactive are those of the source. Calls come from the whole dose curve; as a rule, active = well fitted cell-killing curve with a large enough effect; inconclusive = small, poorly fitted or top-dose-only effect, or effect the other way; inactive = no such curve, though single readings can be large or run the other way.
Your answer must be one of the following: active, inactive

// known answers, use as guide
{"MOLECULE": "Cn1c(=O)c(-c2c(Cl)cccc2Cl)cc2cnc(Nc3cccc(C(=O)O)c3)nc21", "LABEL VALUE": "active"}
{"MOLECULE": "COC(=O)[C@H](c1ccccc1Cl)N1CCc2sccc2C1", "LABEL VALUE": "inactive"}
{"MOLECULE": "O[C@@H](COc1cccc2ncccc12)CN1CCN(C2c3ccccc3[C@@H]3[C@H](c4ccccc42)C3(F)F)CC1 (stereo partly drawn)", "LABEL VALUE": "active"}
{"MOLECULE": "COc1ccc2ccc(=O)oc2c1CC=C(C)C", "LABEL VALUE": "active"}
{"MOLECULE": "OC1CCC(Nc2ncc3nc(Nc4c(F)cc(F)cc4F)n([C@@H]4CCOC4)c3n2)CC1 (stereo partly drawn)", "LABEL VALUE": "active"}

Lookup: Just curious, what result did CCOC(=O)N1CCN([N+]([O-])=NOc2cc(ON=[N+]([O-])N3CCN(C(=O)OCC)CC3)c([N+](=O)[O-])cc2[N+](=O)[O-])CC1 get here?
Found: active

Lookup: Query CC=C1C2C=C(C)CC1(N)c1ccc(=O)[nH]c1C2 (stereo not drawn) next
Found: inactive

Lookup: Item: COc1cccc(OC)c1-c1cc(C(=O)NC2(C(=O)O)C3CC4CC(C3)CC2C4)nn1-c1ccnc2cc(Cl)ccc12 (stereo not drawn)
Found: inactive

Lookup: How about this molecule: CC1(C)CC(=O)c2c(C(F)(F)F)nn(-c3ccc(C(N)=O)c(NC4CCC(O)CC4)c3)c2C1 (stereo not drawn)
Found: active

Lookup: Follow-up entry: Cc1ccc2c(c1)c1c(n2CCc2ccc(C)nc2)CCN(C)C1
Found: inactive

Lookup: Would you mind doing O=C(O)C1=CO[C@@H](O[C@@H]2O[C@H](CO)[C@H](O)[C@H](O)[C@H]2O)[C@@H]2C(CO)=CC[C@H]12 as well?
Found: inactive

Lookup: One more molecule: O=C(c1ccc(C(=O)N2CCC(N3CCCC3)CC2)c(Nc2ccccc2)c1)N1CCC(N2CCCC2)CC1
Found: inactive

Lookup: Would you kindly repeat that for COc1c(C)c2c(c(O)c1CC=C(C)CCC(=O)OCCN1CCOCC1)C(=O)OC2 ?
Found: active
